tested on: SF-539 CNS; assay: NCI-60 one-dose screen, 48 h (100 = growth as untreated, 0 = no growth, -100 = all killed); settings: 10 µM unless noted
The panel holds about 83,000 compounds, 20% with a hit somewhere; the sample as a whole holds those more often.
Criterion: growth strictly under 90%. Met: Condition met. Not met: Condition not met.

compound | tested_target | answer_label
Cc1ccc(-c2cc(-c3nnc(SCC(=O)c4ccccc4)o3)c3ccccc3n2)cc1 | SF-539 CNS | Condition not met
CCC1CN2C(=N1)c1ccccc1-c1cc(Cl)ccc12 (stereo unspecified) | SF-539 CNS | Condition met
COc1ccc(OC)c(NCC(=O)n2nc(/C=C\c3ccc(O)c(OC)c3)cc2/C=C\c2ccc(O)c(OC)c2)c1 | SF-539 CNS | Condition met
CC(C)CNCC(O)COc1ccc(C(C)(C)c2ccc(OCC(O)CNCC(C)C)cc2)cc1 (stereo unspecified) | SF-539 CNS | Condition met
CCOC(=O)NNc1nncc2ccccc12 | SF-539 CNS | Condition not met
CC(C)NCC(O)COc1ccc(CC(N)=O)cc1 (stereo unspecified) | SF-539 CNS | Condition not met

----------
// reported growth for each item listed
tested on: BT-549 breast; test: NCI-60 one-dose screen, 48 h (100 = growth as untreated, 0 = no growth, -100 = all killed); settings: 10 µM unless noted
Compounds without any hit were thinned out: in the full panel of roughly 83,000, 20% have a hit.

compound | growth, %
CCOC(=O)NNc1nncc2ccccc12 | 113
CC1(C)CC(=O)C2=C(C1)OC1=C(C(=O)CC(C)(C)C1)C2c1ccc(OCc2cn(-c3ccc(F)cc3F)nn2)cc1 | 110
O=C(Nc1ccc(-n2ccc3c(NC(=O)c4ccccc4)ncnc32)cc1)Nc1cccc(Cl)c1Cl | 49.2
O=C(Cn1c2ccccc2c2ccncc21)N/N=C\c1ccc2ccccc2c1 | 52.5
CCCCNc1cc(C(=O)O)cc(S(N)(=O)=O)c1Oc1ccccc1 | 104
O=C(Nc1cccc([N+](=O)[O-])c1)Nc1cccc([N+](=O)[O-])c1 | 50.5
COc1ccc(/C=C2/C(=O)Nc3cc(Cl)c(-c4csc(N)n4)cc32)cc1 | 33.4
O=C(c1cc(-c2ccc(Cl)cc2)nc2ccccc12)N1N=C(c2ccccc2)CC1c1cc(-c2ccccc2)nn1-c1ccccc1 (stereo not drawn) | 84.9
COc1ccc(/C=C/C(=O)c2ccc(NC(=O)CSc3nnc(-c4cc(OC)c(OC)c(OC)c4)o3)cc2)cc1 | -3.02
CS(=O)(=O)Nc1cccc(-c2ccc3ncnc(Nc4ccc(F)c(Cl)c4)c3c2)c1 | 35.4
COc1ccc(OC)c(NCC(=O)n2nc(/C=C\c3ccc(O)c(OC)c3)cc2/C=C\c2ccc(O)c(OC)c2)c1 | 17.1
Cc1nccc2c3ccc(OCc4cn(Cc5ccc(Br)cc5)nn4)cc3n(CCCc3ccccc3)c12 | 88.2
C#CC(=O)/C=C/CCCCCCC#CC(=O)CCC(=O)C#CCCCCCC/C=C/C(=O)C#C | -15.3
CC(=O)c1ccc2c(c1)C1C=CCC1[C@H](c1cc3c(cc1Br)OCO3)N2 (stereo partly drawn) | 44.6
COc1ccc(-c2nn(-c3ccc(NC(=O)c4cc(Cl)cc(Cl)c4)cc3)cc2-c2ccncc2)cc1Cl | 66.8
O=C(Nc1ccc(-n2ccc3c(NC(=O)c4ccccc4)nccc32)cc1)c1ccc(Cl)c(C(F)(F)F)c1 | 37.6
O=C(Nc1ccc(Cl)c(Cl)c1)Nc1ccc(Cl)c([N+](=O)[O-])c1 | -9.25
CCc1cccc(C)c1NC(=O)c1sc2nc3c(cc2c1N)CCCCC3 | 58.3
COc1cc(NC(=O)c2cc(OC)c3ccn(C)c3c2)cc2c1C[C@]1(C)CC[C@@H](O)C(C)(C)[C@H]1O2 | 36.9
OC(COc1ccccc1Cl)CN1CCN(c2ccc(Cl)cc2)CC1 (stereo not drawn) | 89.9
O=C(Nc1ccc(-n2ccc3c(NC(=O)c4ccccc4)ncnc32)cc1)c1cccc(C(F)(F)F)c1 | 51.9
O=C1OC(c2ccc(-c3ccccc3)cc2)=C/C1=C/C=C/c1ccccc1 | 111
O=C1CN(CCN2CC(=O)NC(=O)C2)CC(=O)N1 | 96.6
O=c1nc(N2CCOCC2)oc2c(-c3cccc4ccccc34)cccc12 | 85.3
COc1ccc(/C=C/C(=O)/C=C(/C=C/c2ccc(OC)c(OC)c2OC)OB(F)F)c(OC)c1OC | 31.4
CN1CCN(CC(=O)N(C)c2ccc(N=C(c3ccccc3)c3c(O)[nH]c4ccc(C#N)cc34)cc2)CC1 | 15.1
COc1cc2ncnc(Oc3ccc(NC(=O)Nc4ccc(CN5CCOCC5)c(C(F)(F)F)c4)c4ccccc34)c2cc1OC | 25.2
CCC1S/C(=N\N=C(/C)c2cc3ccccc3o2)N(c2ccccc2)C1=O (stereo not drawn) | 234
CCNC(=O)Oc1ccc(/C(=C(/CC)Cc2ccccc2)c2ccc(OCCN3CCOCC3)cc2)cc1 | 69.9
O=C1/C(=C/c2cccc3cnccc23)Cc2cc(F)ccc21 | 89
O=C(O)c1cc2ccccc2cc1Nc1ccccc1 | 113
O=C1OC(N(Cc2ccc(Cl)cc2)c2ccccc2)c2ccccc21 (stereo not drawn) | 103
COc1ccc(-c2nn(-c3ccc(NC(=O)Nc4ccc(Cl)c(C(F)(F)F)c4)cc3)cc2-c2ccncc2)cc1Cl | 0.583
Cc1cc(SCc2ccc(Cl)cc2Cl)nc(SCc2ccc(Cl)cc2Cl)n1 | 106
COc1ccc(-c2cc3ccc(N(C)C)cc3nc2N)c(F)c1 | 18.8
c1ccc2nc(Cn3cc[n+](Cc4ccc5ccccc5n4)c3)ccc2c1 | 33.7
C=C1C(=O)O[C@H]2[C@H]1CC/C(C(=O)NCCOCCOCC(=O)Nc1ccc(OC)c(C(N)=O)c1O)=C\CC[C@@]1(C)O[C@@H]21 | 86.2
CCOC(=O)c1noc2c1CCc1cn(Cc3cc(OC)cc(OC)c3)cc1-2 | 91.5
